Listed variants paired with reported protein stability index
B1: KRT13 (parent)
chain: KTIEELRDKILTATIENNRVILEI

# Variants of: B1
# measurement.protocol: protein stability index of a GFP-peptide fusion (GPS, HEK-293T) (PSI 1-6); higher = more stable;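 also: lentivirally expressed fusions sorted by FACS into six bins by GFP to DsRed ratio, PSI derived from sequencing read proportions per bin multiplied by bin number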
# condition.description: c terminus: a fixed tail appended
API note: the answer field is a bare number with no unit suffix.

Solved entries (count: 5):
Q: Reported protein stability index, variant N18S : ____
Ans: 2.99

Q: Reported protein stability index, variant L11N : ____
Ans: 2.85

Q: Reported protein stability index, variant K9A : ____
Ans: 1.85

Q: Reported protein stability index, variant L22H : ____
Ans: 2.52

Q: Reported protein stability index, variant D8S : ____
Ans: 2.79

Others:
Q: Reported protein stability index, variant V20H : ____
Ans: 1.6

Q: Reported protein stability index, variant K1Y : ____
Ans: 2.36

Q: Reported protein stability index, variant E4I : ____
Ans: 2.6

Q: Reported protein stability index, variant L11F : ____
Ans: 2.34

Q: Reported protein stability index, variant I3Q : ____
Ans: 2.43

Q: Reported protein stability index, variant K9P : ____
Ans: 2.84
